Assay: Luminescence activity assay of purified Gaussia luciferase mutants on coelenterazine derivative ZS2
Assay type: biochemical
Parameters: key: ratio of mutant luminescence intensity to wild-type Gaussia luciferase
Settings: Substrate ZS2 (Table 16)
In this section, each of the molecules is paired with its reported Activity of mutant relative to wild-type Gaussia luciferase without the signal peptide.
Please reply with the value in numeric form only.

* F26G N27Y A30D V31L A32V S33R A36M T37E L40G: Gaussia luciferase mutant (protein, SIGNAL (1)..(17), Gaussia luciferase mutant) MGVKVLFALICIAVAEAKPTENNEDGYIVDLVRNFMETDGDADRGKLPGKKLPLEVLKEMEANARKAGCTRGCLICLSHIKCTPKMKKFIPGRCHTYEGDKESAQGGIGEAIVDIPEIPGFKDLEPMEQFIAQVDLCVDCTTGCLKGLANVQCSDLLKKWLPQRCATFASKIQGQVDKIKGAGGD | 1.203
* Q152H S170D G174S K178T A182L: Gaussia luciferase mutant (protein, SIGNAL (1)..(17), Gaussia luciferase mutant) MGVKVLFALICIAVAEAKPTENNEDFNIVAVASNFATTDLDADRGKLPGKKLPLEVLKEMEANARKAGCTRGCLICLSHIKCTPKMKKFIPGRCHTYEGDKESAQGGIGEAIVDIPEIPGFKDLEPMEQFIAQVDLCVDCTTGCLKGLANVHCSDLLKKWLPQRCATFADKIQSQVDTIKGLGGD | 2.672

Next item in the queue.
Query: Activity of mutant relative to wild-type Gaussia luciferase without the signal peptide; subject: F26Y N27Y V29A A30G S33V A36V T37S L40G: Gaussia luciferase mutant (protein, SIGNAL (1)..(17), Gaussia luciferase mutant) MGVKVLFALICIAVAEAKPTENNEDYYIAGVAVNFVSTDGDADRGKLPGKKLPLEVLKEMEANARKAGCTRGCLICLSHIKCTPKMKKFIPGRCHTYEGDKESAQGGIGEAIVDIPEIPGFKDLEPMEQFIAQVDLCVDCTTGCLKGLANVQCSDLLKKWLPQRCATFASKIQGQVDKIKGAGGD
0.177
